meta.source: patent US7973069B2

- Tested on: HCV replicon
- Assay type: cell-based
metric: IC50

>>> result("C[C@@H](OC(=O)Nc1ccc(-c2c(C#N)c3ccc(OCCF)cc3n2C2CCC2)cc1)C1CC1")
"< 0.5 µM"

Provide IC50 for all items below, preserving their order.
1. CCCOC(=O)Nc1ccc(-c2c(C#N)c3ccc(OC(F)(F)F)cc3n2CC)cc1
2. CCCCn1c(-c2cccc(NC(=O)NCCc3ccccc3)c2)c(C#N)c2ccc(OCC)cc21
3. CCOc1ccc2c(C#N)c(-c3ccc(NC(=O)OCCOC)cc3)n(C3CCC3)c2c1

1: 0.5 to 2 µM; 2: < 0.5 µM; 3: 0.5 to 2 µM

Provide IC50 for all items below, preserving their order.
1. COCCn1c(-c2ccc(N3CCCS3(=O)=O)cc2)c(C#N)c2ccc(OC(F)(F)F)cc21
2. CC(C)NC(=O)Nc1ccc(-c2c(C#N)c3ccc(OCCCN4CCOCC4)cc3n2C2CCC2)cc1
3. CCCCOC(=O)Nc1cccc(-c2c(C#N)c3ccc(OCCCN4CCOCC4)cc3n2CC)c1

1: 0.5 to 2 µM; 2: 0.5 to 2 µM; 3: 0.5 to 2 µM

Given CCOc1ccc2c(c1)c(C#N)c(-c1ccc(NC(=O)OC3CCC3)cc1)n2C1CCC1 , state its recorded IC50. < 0.5 µM

====

Kindly supply the reported IC50 values for the records listed here.
- Test system: HCV replicon
- Format: cell-based

Example entries and their recorded answers appear below.
>>> result("CCC(C)OC(=O)Nc1ccc(-c2c(C#N)c3ccc(OCC4CCCO4)cc3n2C2CCC2)cc1 (centres unmarked) [Compound 1283]")
"< 0.5 µM"
>>> result("C[C@@H](OC(=O)Nc1ccc(-c2c(C#N)c3ccc(Oc4cnccn4)cc3n2C2CC2)cc1)C1CC1 [Compound 2322]")
"< 0.5 µM"
>>> result("CCn1c(-c2ccc(N3CCCS3(=O)=O)cc2)c(C#N)c2ccc(NC(=O)OC(C)(C)C)cc21 [Compound 1049]")
"< 0.5 µM"
>>> result("CCC(C)OC(=O)Nc1ccc(-c2c(C#N)c3ccc(OC(F)F)cc3n2CC2CC2)cc1 (centres unmarked) [Compound 1268]")
"0.5 to 2 µM"
>>> result("CCn1c(-c2ccc(N)c(F)c2)c(C#N)c2ccc(OC)cc21 [Compound 880]")
"0.5 to 2 µM"

Provide IC50 for all items below, preserving their order.
1. CCOc1ccc2c(C#N)c(-c3ccc(NC(=O)CC)cc3)n(CC)c2c1 [Compound 896]
2. CCn1c(-c2ccc(NS(C)(=O)=O)c(C)c2)c(C#N)c2ccc(OC)cc21 [Compound 959]

1. 0.5 to 2 µM
2. 0.5 to 2 µM

Given CCn1c(-c2ccc(N3CCCS3(=O)=O)cc2)c(C#N)c2ccc(N)cc21 [Compound 1050] , state its recorded IC50. 0.5 to 2 µM

====

Kindly supply the reported IC50 values for the records listed here.
- Test system: HCV replicon
- Format: cell-based

Example entries and their recorded answers appear below.
>>> result("CCn1c(-c2ccc(NC(=O)OC(C)C)c(F)c2)c(C#N)c2ccc(OC)cc21")
"0.5 to 2 µM"
>>> result("CCOc1ccc2c(C#N)c(-c3ccc(NC(=O)OCCCCl)cc3)n(C3CCC3)c2c1")
"< 0.5 µM"
>>> result("CCOc1ccc2c(c1)c(C#N)c(-c1ccc(NC(=O)OCC3(C)CC3)cc1)n2C1CCC1")
"< 0.5 µM"
>>> result("CCOc1ccc2c(C#N)c(-c3ccc(NC(=O)OC(C)C)cc3)n(C3CCCC3)c2c1")
"< 0.5 µM"
>>> result("CCOc1ccc2c(C#N)c(-c3ccc(NC(=O)OC(C)CC)cc3)n(C3CCC3)c2c1 (stereo not shown)")
"< 0.5 µM"

Provide IC50 for all items below, preserving their order.
1. CCCOC(=O)Nc1cccc(-c2c(C#N)c3ccc(OCCCN4CCOCC4)cc3n2CC)c1
2. N#Cc1c(-c2ccc(NC(=O)OCC3CCC3)cc2)n(C2CCC2)c2cc(OCCCCN3CCCC3)ccc12
3. CCn1c(-c2ccc(NC(=O)C3CC3)cc2)c(C#N)c2ccc(OCCN(C)CCOC)cc21
4. CC(OC(=O)Nc1ccc(-c2c(C#N)c3ccc(OCCN(C)C)cc3n2C2CCC2)cc1)C1CC1 (stereo not shown)
5. CCNC(=O)Nc1cccc(-c2c(C#N)c3ccc(OCCCN4CCCC4)cc3n2CC)c1
6. CCOc1ccc2c(C#N)c(-c3ccc(NC(=O)NCCc4ccccc4)cc3)n(C(C)C)c2c1

["< 0.5 µM", "< 0.5 µM", "0.5 to 2 µM", "< 0.5 µM", "< 0.5 µM", "< 0.5 µM"]

Provide IC50 for all items below, preserving their order.
1. CCOc1ccc2c(C#N)c(-c3ccc(NC(=O)OC4CCCC4)nc3)n(C3CCC3)c2c1
2. CCn1c(-c2ccc(NC(=O)OC)c(F)c2)c(C#N)c2ccc(OC)cc21
3. CCCCNC(=O)Nc1ccc(-c2c(C#N)c3cc(OC)ccc3n2CCC)cc1
4. CCOC(=O)Nc1ccc(-c2c(C#N)c3ccc(OCC)cc3n2CC2CC2)cc1
5. CCn1c(-c2ccc(NC(=O)C3CC3)cc2)c(C#N)c2ccc(OCCN3CCN(C)CC3)cc21

0.5 to 2 µM
0.5 to 2 µM
0.5 to 2 µM
< 0.5 µM
0.5 to 2 µM

====

- Tested on: HCV replicon
- Assay type: cell-based
Kindly supply the reported IC50 values for the records listed here.

Provide IC50 for all items below, preserving their order.
1. CCCOc1ccc2c(C#N)c(-c3ccc(NC(=O)OC(C)C)cc3)n(C(C)C)c2c1
2. CC(C)OC(=O)Nc1ccc(-c2c(C#N)c3ccc(OCCN(C)C)cc3n2C2CCC2)cc1
3. CCCNC(=O)Nc1ccc(-c2c(C#N)c3ccc(OC(F)F)cc3n2CC)cc1
4. CCCn1c(-c2ccc(NC(=O)OC(C)C)cc2)c(C#N)c2ccc(OCC)cc21

1: < 0.5 µM; 2: < 0.5 µM; 3: 0.5 to 2 µM; 4: < 0.5 µM

Provide IC50 for all items below, preserving their order.
1. CCCOC(=O)Nc1ccc(-c2c(C#N)c3ccc(OCCCCl)cc3n2CC)cc1
2. CCNC(=O)Nc1ccc(-c2c(C#N)c3ccc(OC(F)(F)F)cc3n2CC)cc1

< 0.5 µM
0.5 to 2 µM

Provide IC50 for all items below, preserving their order.
1. CCOc1ccc2c(C#N)c(-c3cccc(N4CCCS4(=O)=O)c3)n(CC)c2c1
2. CCCS(=O)(=O)Nc1ccc(-c2c(C#N)c3ccc(OC)cc3n2C2CC2)cc1

["0.5 to 2 µM", "0.5 to 2 µM"]

====

Kindly supply the reported IC50 values for the records listed here.
- System: HCV replicon
- Type: cell-based

Example entries and their recorded answers appear below.
>>> result("CC(C)OC(=O)Nc1ccc(-c2c(C#N)c3ccc(OCCF)cc3n2C2CCC2)cc1")
"< 0.5 µM"
>>> result("CCOc1ccc2c(C#N)c(-c3ccc(NC(=O)OC(C)C)cc3)n(C3CC3)c2c1")
"< 0.5 µM"

Provide IC50 for all items below, preserving their order.
1. CCNC(=O)Nc1ccc(-c2c(C#N)c3ccc(OCCF)cc3n2CC)cc1
2. CCN(CC)CCCOc1ccc2c(C#N)c(-c3ccc(NC(=O)OC(C)C)cc3)n(C3CCC3)c2c1

1. 0.5 to 2 µM
2. < 0.5 µM

====

- System: HCV replicon
- Format: cell-based
metric: IC50

Example entries and their recorded answers appear below.
>>> result("CCn1c(-c2ccc(N3CCOC3=O)cc2)c(C#N)c2ccc(OCCCCl)cc21")
"0.5 to 2 µM"
>>> result("CCOc1ccc2c(C#N)c(-c3ccc(NC(=O)OC4CCOCC4)cc3)n(C3CCC3)c2c1")
"0.5 to 2 µM"
>>> result("CCOc1ccc2c(C#N)c(-c3ccc(NC(=O)OC(C)C(C)C)cc3)n(C3CCC3)c2c1 (centres unmarked)")
"< 0.5 µM"
>>> result("CCCOc1ccc2c(C#N)c(-c3ccc(NC(=O)OCC4(C)CC4)cc3)n(C(C)C)c2c1")
"< 0.5 µM"
>>> result("CCOc1ccc2c(C#N)c(-c3ccc(NC(=O)OCCCN4CCOCC4)cc3)n(C3CCC3)c2c1")
"< 0.5 µM"

Provide IC50 for all items below, preserving their order.
1. C=CCNC(=O)Nc1ccc(-c2c(C#N)c3cc(OC)ccc3n2CCC)cc1
2. CCCS(=O)(=O)Nc1ccc(-c2c(C#N)c3ccc(OC(F)(F)F)cc3n2CC)cc1
3. CCOc1ccc2c(C#N)c(-c3ccc(NC(=O)OCCF)cc3)n(C3CCC3)c2c1

1: 0.5 to 2 µM; 2: < 0.5 µM; 3: < 0.5 µM

====

- Test system: HCV replicon
- Format: cell-based
metric: IC50

>>> result("CCOC(=O)Nc1ccc(-c2c(C#N)c3ccc(OCCCCl)cc3n2CC)cc1")
"< 0.5 µM"

Provide IC50 for all items below, preserving their order.
1. CCn1c(-c2ccc(NC(=O)OC)cc2)c(C#N)c2ccc(OCCCN3CCOCC3)cc21
2. CCCOC(=O)Nc1ccc(-c2c(C#N)c3cc(OCc4ccccc4)ccc3n2CC)cc1
3. CCOC(=O)Nc1ccc(-c2c(C#N)c3ccc(OC(F)(F)F)cc3n2CC)cc1
4. CCOc1ccc2c(C#N)c(-c3ccc(N4CCCS4(=O)=O)cc3)n(C3CCC3)c2c1
5. COC(=O)c1ccc2c(C#N)c(-c3ccc(NC(=O)NC(C)C)cc3)n(C3CCC3)c2c1
6. CCn1c(-c2ccc(N(C)S(=O)(=O)CC)cc2)c(C#N)c2ccc(C(F)(F)F)cc21

1. 0.5 to 2 µM
2. 0.5 to 2 µM
3. 0.5 to 2 µM
4. > 2 µM
5. < 0.5 µM
6. 0.5 to 2 µM
